- test_summary: Tmax in BALB/c mouse at 10 mg/kg
- Type: ADME, organism-based
- Design: dose 10 mg/kg
- experimental_parameters: in vivo
measured_attribute: Tmax (min)
API: value field is a number in min; no unit string.

Need Tmax, item C=C1C[C@@H]2CC[C@@]34C[C@H]5O[C@H]6[C@@H](O3)[C@H]3O[C@H](CC[C@@H]3O[C@H]6[C@H]5O4)CC(=O)C[C@@H]3[C@@H](OC)[C@@H](C[C@H](O)CN)O[C@H]3C[C@H]3O[C@@H](CC[C@@H]1O2)C[C@@H](C)C3=C
5

###

- test_summary: Oral bioavailability in BALB/c mouse at 5 mg/kg
- Assay type: ADME, organism-based
- experimental_parameters: in vivo
measured_attribute: bioavailability (%)
Give the number; % is assumed, so skip it.

Dear colleague, I am looking for the recorded bioavailability of the following compound: C=C1C[C@@H]2CC[C@@]34C[C@H]5O[C@H]6[C@@H](O3)[C@H]3O[C@H](CC[C@@H]3O[C@H]6[C@H]5O4)CC(=O)C[C@@H]3[C@@H](OC)[C@@H](C[C@@H](CN4CCOCC4)OC)O[C@H]3C[C@H]3O[C@@H](CC[C@@H]1O2)C[C@@H](C)C3=C
14.9

Suppose we examine the compound C=C1C[C@@H]2CC[C@@]34C[C@H]5O[C@H]6[C@@H](O3)[C@H]3O[C@H](CC[C@@H]3O[C@H]6[C@H]5O4)CC(=O)C[C@@H]3[C@@H](OC)[C@@H](CCNCC(F)F)O[C@H]3C[C@H]3O[C@@H](CC[C@@H]1O2)C[C@@H](C)C3=C ; what bioavailability value has been reported?
11.3

Item C=C1C[C@@H]2CC[C@@]34C[C@H]5O[C@H]6[C@@H](O3)[C@H]3O[C@H](CC[C@@H]3O[C@H]6[C@H]5O4)CC(=O)C[C@@H]3[C@@H](OC)[C@@H](CC(=O)CN4CCOCC4)O[C@H]3C[C@H]3O[C@@H](CC[C@@H]1O2)C[C@@H](C)C3=C has what recorded bioavailability?
13.3

###

- test_summary: AUC (0 to infinity) in BALB/c mouse at 10 mg/kg
- Type: ADME, organism-based
- Set-up: time infinity, dose 10 mg/kg
- experimental_parameters: plasma
measured_attribute: AUC(0-inf) (ng·h/mL)
Quick note: give the figure in ng·h/mL, leave out the unit.

Query (molecule): C=C1C[C@@H]2CC[C@@]34C[C@H]5O[C@H]6[C@@H](O3)[C@H]3O[C@H](CC[C@@H]3O[C@H]6[C@H]5O4)CC(=O)C[C@@H]3[C@@H](OC)[C@@H](C[C@H](O)CN)O[C@H]3C[C@H]3O[C@@H](CC[C@@H]1O2)C[C@@H](C)C3=C ; field requested: AUC(0-inf)
161

The measurements presented in this section are drawn from ChEMBL document CHEMBL1681747.
